Catalogue of IC50 values
- assay_system: p110α/p85 (Homo sapiens)
- Sequence (P42336 whole entry): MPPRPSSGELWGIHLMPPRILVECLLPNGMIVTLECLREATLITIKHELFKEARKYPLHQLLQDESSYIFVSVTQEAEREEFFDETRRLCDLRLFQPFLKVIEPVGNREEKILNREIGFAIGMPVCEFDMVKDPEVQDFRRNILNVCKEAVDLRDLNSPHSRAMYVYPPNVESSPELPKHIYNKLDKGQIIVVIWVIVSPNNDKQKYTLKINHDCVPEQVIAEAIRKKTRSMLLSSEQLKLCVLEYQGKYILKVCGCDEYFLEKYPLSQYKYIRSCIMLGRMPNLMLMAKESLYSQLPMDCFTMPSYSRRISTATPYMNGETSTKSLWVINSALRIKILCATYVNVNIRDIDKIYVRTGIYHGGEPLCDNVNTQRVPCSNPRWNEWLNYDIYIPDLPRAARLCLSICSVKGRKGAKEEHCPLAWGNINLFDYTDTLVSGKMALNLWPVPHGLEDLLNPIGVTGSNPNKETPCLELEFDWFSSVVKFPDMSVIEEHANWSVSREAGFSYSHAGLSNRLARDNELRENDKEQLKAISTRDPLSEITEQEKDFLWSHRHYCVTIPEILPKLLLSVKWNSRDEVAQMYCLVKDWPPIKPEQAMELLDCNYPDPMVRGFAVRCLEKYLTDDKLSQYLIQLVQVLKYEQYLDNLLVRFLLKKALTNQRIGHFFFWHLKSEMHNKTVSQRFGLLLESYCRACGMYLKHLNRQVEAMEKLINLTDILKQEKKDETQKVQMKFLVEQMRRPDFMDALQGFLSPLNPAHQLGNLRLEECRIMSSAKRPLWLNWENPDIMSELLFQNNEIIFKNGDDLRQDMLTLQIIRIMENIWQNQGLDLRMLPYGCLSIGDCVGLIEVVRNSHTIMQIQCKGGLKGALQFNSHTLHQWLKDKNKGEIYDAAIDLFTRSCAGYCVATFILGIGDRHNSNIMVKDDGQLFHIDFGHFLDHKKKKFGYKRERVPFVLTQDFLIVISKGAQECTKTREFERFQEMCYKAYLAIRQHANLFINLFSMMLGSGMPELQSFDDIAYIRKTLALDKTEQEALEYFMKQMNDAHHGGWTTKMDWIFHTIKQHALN
- Sequence (P27986 whole entry partner): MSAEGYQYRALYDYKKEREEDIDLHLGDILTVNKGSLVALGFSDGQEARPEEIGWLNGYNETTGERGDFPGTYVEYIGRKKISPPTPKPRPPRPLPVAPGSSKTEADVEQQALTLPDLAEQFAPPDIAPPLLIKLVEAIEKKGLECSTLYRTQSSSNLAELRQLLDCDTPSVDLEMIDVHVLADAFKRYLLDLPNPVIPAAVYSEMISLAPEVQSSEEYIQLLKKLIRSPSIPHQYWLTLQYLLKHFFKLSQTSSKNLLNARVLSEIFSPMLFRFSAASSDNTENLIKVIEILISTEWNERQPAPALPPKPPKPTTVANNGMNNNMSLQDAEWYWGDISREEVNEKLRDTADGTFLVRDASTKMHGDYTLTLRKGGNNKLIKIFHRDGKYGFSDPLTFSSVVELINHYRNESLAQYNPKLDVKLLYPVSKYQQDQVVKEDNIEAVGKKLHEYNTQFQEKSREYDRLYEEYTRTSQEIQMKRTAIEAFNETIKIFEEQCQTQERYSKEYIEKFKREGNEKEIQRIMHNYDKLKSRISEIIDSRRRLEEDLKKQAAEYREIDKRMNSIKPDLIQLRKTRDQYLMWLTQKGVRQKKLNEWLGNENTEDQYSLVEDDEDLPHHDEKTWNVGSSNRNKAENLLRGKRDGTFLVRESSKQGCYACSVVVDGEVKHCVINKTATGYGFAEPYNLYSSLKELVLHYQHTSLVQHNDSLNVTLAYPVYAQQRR
- assay: Inhibition of isolated enzyme (lipid kinase assay, [γ33P]ATP, TLC)
- measurement_context: recombinant enzyme, 100 μM ATP, 1 hr room temperature, average of two experiments
- Procedure: Compounds were evaluated for their ability to inhibit Class I PI 3-kinase enzymes p110δ/p85, p110α/p85, and p110β/p85. […] The TLC plates were then dried at room temperature and quantified using a phosphorimager (StormImager, Amersham). […]

1. COc1cccc2c1nc(C(F)F)n2-c1nc(-c2cccnc2)nc(N2CCOCC2)n1 ... < 100 nM
2. COc1cccc2c1nc(C(F)F)n2-c1nc(Nc2cncnc2)nc(N2CCOCC2)n1 ... < 100 nM

Give its IC50 value. Item: `O=S(=O)(c1ccccc1)c1nc(N2CCOCC2)nc(-n2c(C(F)F)nc3ccccc32)n1`
1000 to 10000 nM
